FYI, the data here is from patent US7109193B2.

Target: human vasopressin V1a receptor subtype (Homo sapiens, UniProt P37288)
Construct: host or cells: CHO cells (pZeoSV vector for the Thibonnier line)
Sequence (P37288 whole entry): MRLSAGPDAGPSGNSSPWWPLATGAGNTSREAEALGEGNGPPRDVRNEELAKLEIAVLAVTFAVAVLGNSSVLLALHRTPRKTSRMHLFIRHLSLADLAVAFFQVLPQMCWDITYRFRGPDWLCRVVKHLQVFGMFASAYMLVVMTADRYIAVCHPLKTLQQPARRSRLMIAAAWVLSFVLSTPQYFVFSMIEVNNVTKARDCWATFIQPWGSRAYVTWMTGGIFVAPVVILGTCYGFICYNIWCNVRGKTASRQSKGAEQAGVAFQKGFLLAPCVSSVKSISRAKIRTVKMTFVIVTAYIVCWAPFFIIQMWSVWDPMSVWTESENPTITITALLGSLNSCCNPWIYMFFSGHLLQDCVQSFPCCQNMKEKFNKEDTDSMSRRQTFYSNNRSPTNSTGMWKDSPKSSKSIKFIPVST
Test Summary: Vasopressin binding in Chinese Hamster Ovary cell membranes expressing human vasopressin V1a subtype receptors
Condition Description: 100 nM, CHO cell membranes, [3H]Manning ligand, values without parentheses
Entries and their measured inhibition at 0.1 µM follow.
Express your answer as a number followed by its unit.

In the examples that follow, each entry is paired with its recorded inhibition at 0.1 µM.
Compound: COc1cc(C(=O)N2Cc3ccc(C(=O)NCCN4CCCCC4)n3Cc3ccccc32)ccc1-c1cccc2ccccc12 [Example 157]
Test Readout: inhibition at 0.1 µM
Recorded Value: 5%
//
Compound: COc1cccc(-c2cc(OC)c(C(=O)N3Cc4ccc(C(=O)N5CCCN(C)CC5)n4Cc4ccccc43)cc2Cl)c1 [Example 67]
Test Readout: inhibition at 0.1 µM
Recorded Value: -4%
//
Compound: COc1cc(C(=O)N2Cc3ccc(C(=O)NCCN4CCCCC4)n3Cc3ccccc32)ccc1-n1c(C)ccc1C [Example 314]
Test Readout: inhibition at 0.1 µM
Recorded Value: 6%

Okay, now this compound:
Request: Could you please provide reported inhibition at 0.1 µM for COc1ccccc1-c1ccc(C(=O)N2Cc3ccc(C(=O)N[C@H]4CN5CCC4CC5)n3Cc3ccccc32)cc1C [Example 298] ? Thanks!
Result: 20%

* * *

Target: human oxytocin receptor (Homo sapiens)
Construct: host or cells: CHO cells (pcDNA3.1 vector)
Sequence (P30559 whole entry): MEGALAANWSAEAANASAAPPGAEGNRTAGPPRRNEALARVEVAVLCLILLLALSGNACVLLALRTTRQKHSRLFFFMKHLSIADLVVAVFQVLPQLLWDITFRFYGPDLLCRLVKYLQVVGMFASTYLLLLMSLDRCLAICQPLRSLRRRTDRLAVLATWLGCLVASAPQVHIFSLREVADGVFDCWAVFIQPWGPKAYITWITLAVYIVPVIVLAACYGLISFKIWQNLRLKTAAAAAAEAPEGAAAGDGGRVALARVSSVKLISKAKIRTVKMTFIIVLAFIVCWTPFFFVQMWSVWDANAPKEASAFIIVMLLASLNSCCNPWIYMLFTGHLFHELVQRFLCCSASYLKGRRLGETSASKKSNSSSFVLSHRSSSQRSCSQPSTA
Test Summary: Oxytocin binding in Chinese Hamster Ovary cell membranes expressing human oxytocin receptors
Condition Description: 100 nM, CHO cell membranes, [3H]oxytocin, values without parentheses, read-out: OT % inhibition @ 100% nM
Test Readout: inhibition at 0.1 µM (%)
API: value field is a number in %; no unit string.

Cpd Smiles: COc1cc(C(=O)N2Cc3ccc(C(=O)n4ccnc4)n3Cc3ccccc32)ccc1-c1ccccc1C
Recorded Value: 78

Cpd Smiles: COc1cc(-c2ccccc2C)c(Cl)cc1C(=O)N1Cc2ccc(C(=O)N3CCN(CCCN(C)C)CC3)n2Cc2ccccc21
Recorded Value: 87

Cpd Smiles: COc1ccccc1-c1ccc(C(=O)N2Cc3ccc(C(=O)N[C@@H](Cc4c[nH]cn4)C(N)=O)n3Cc3ccccc32)cc1C
Recorded Value: 95

Okay, now this molecule:
Request: Enter inhibition at 0.1 µM (test system human oxytocin receptor (Homo sapiens)) for "COc1ccccc1-c1ccc(C(=O)N2Cc3ccc(C(=O)N[C@@H]4CN5CCC4CC5)n3Cc3ccccc32)cc1OC"
Result: 72

* * *

Entries and their measured inhibition at 0.1 µM follow.
Target: human vasopressin V1a receptor subtype (Homo sapiens)
Construct: host or cells: CHO cells (pZeoSV vector for the Thibonnier line)
Test Summary: Vasopressin binding in Chinese Hamster Ovary cell membranes expressing human vasopressin V1a subtype receptors
Condition Description: 100 nM, CHO cell membranes, [3H]Manning ligand, values without parentheses

Compound: COc1cccc(-c2cc(OC)c(C(=O)N3Cc4ccc(C(=O)NCCCN(C)C)n4Cc4ccccc43)cc2Cl)c1
inhibition at 0.1 µM: 0%
--
Compound: Cc1ccccc1-c1ccc(C(=O)N2Cc3ccc(C(=O)NCCC4CCCN4C)n3Cc3ccccc32)cc1C (stereo not shown)
inhibition at 0.1 µM: 43%
--
Compound: COc1cccc(-c2cc(OC)c(C(=O)N3Cc4ccc(C(=O)NCCCn5ccnc5)n4Cc4ccccc43)cc2Cl)c1
inhibition at 0.1 µM: 4%

Request: Enter inhibition at 0.1 µM (test system human vasopressin V1a receptor subtype (Homo sapiens)) for "COc1cc(C(=O)N2Cc3ccc(C(=O)N4CCN(C)CC4)n3Cc3ccccc32)ccc1-n1c(C)ccc1C"
Result: 0%
